molecules and their reported MIC
# Tested on: Tetrahymena pyriformis W
# testProtocol: Antiprotozoal activity, growth inhibition by serial dilution method
# Format: cell-based
# conditionInfo: Tetrahymena pyriformis W, 28° C., 44 to 48 hours, pH 7.0 medium, serial dilution; read-out: Antiprotozoal activity MIC
propertyLabel: MIC (µg/mL)

molecule: COc1cc2cc(c1Cl)N(C)C(=O)CC(OC(=O)[C@H](Cc1ccccc1)N(C)C(C)=O)C1(C)OC1C(C)C1CC(O)(NC(=O)O1)C(OC)C=CC=C(C)C2 (stereo partly drawn)
measurementTarget: Tetrahymena pyriformis W
recordedNumber: 1

molecule: COc1cc2cc(c1Cl)N(C)C(=O)CC(OC(=O)[C@@H](C)N(C)C(=O)OC(C)(C)C)C1(C)OC1C(C)C1CC(O)(NC(=O)O1)C(OC)C=CC=C(C)C2 (stereo partly drawn)
measurementTarget: Tetrahymena pyriformis W
recordedNumber: 8

molecule: COc1cc2cc(c1Cl)N(C)C(=O)CC(OC(=O)[C@H](Cc1ccccc1)NC(=O)OC(C)(C)C)C1(C)OC1C(C)C1CC(O)(NC(=O)O1)C(OC)C=CC=C(C)C2 (stereo partly drawn)
measurementTarget: Tetrahymena pyriformis W
recordedNumber: 4

molecule: COc1cc2cc(c1Cl)N(C)C(=O)CC(OC(=O)[C@H](CC(C)C)N(C)C(C)=O)C1(C)OC1C(C)C1CC(O)(NC(=O)O1)C(OC)C=CC=C(C)C2 (stereo partly drawn)
measurementTarget: Tetrahymena pyriformis W
recordedNumber: 2
